molecular target: Histone deacetylase 1 (Homo sapiens); assay: Inhibition of human recombinant HDAC1 expressed in baculovirus infected insect High5 cells using Ac-Lys-Tyr-Lys(epsilon-acetyl)-AMC as substrate at 20 ug/ml by fluorescence assay
Sequence (Q13547 whole entry): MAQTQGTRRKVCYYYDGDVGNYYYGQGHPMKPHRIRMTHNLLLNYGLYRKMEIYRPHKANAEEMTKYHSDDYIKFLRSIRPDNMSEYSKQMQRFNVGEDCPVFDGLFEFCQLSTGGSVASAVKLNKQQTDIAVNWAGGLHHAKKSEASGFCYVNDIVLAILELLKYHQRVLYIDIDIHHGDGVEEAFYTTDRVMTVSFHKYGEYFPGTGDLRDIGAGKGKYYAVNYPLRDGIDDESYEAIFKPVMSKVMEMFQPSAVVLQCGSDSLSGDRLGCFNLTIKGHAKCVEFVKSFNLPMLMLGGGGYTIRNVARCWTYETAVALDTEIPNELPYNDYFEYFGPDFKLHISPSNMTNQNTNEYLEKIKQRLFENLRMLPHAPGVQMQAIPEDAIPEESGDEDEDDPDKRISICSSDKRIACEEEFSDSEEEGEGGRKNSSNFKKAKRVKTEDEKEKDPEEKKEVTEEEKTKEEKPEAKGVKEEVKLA
The source made the active and inactive calls. No cut-off for these calls is given here.
endpoint: inhibition

The cases that follow already have their inhibition on record.
[
  {
    "compound": "O=C(O)/C=C/C=C/CCCCc1ccc2c(c1)OCO2",
    "inhibition": "< 50%"
  },
  {
    "compound": "O=C(O)/C=C/C=C/CC/C=C/c1ccc2c(c1)OCO2",
    "inhibition": "< 50%"
  },
  {
    "compound": "O=C(/C=C/C=C/c1ccc2c(c1)OCO2)NO",
    "inhibition": "inactive"
  },
  {
    "compound": "CC(C)CNC(=O)/C=C/C=C/CC/C=C/c1ccc2c(c1)OCO2 [RETROFRACTAMIDE A]",
    "inhibition": "< 50%"
  },
  {
    "compound": "CC(C)CNC(=O)/C=C/C=C/c1ccc2c(c1)OCO2",
    "inhibition": "inactive"
  }
]

As a next step, examine the compound that follows.
Any idea what inhibition was measured for `O=C(O)/C=C/C=C/c1ccc2c(c1)OCO2` ?
inactive

---

target: Histone deacetylase 3 (Homo sapiens, UniProt O15379); assay: Inhibition of human recombinant HDAC3 expressed in baculovirus infected insect High5 cells using Ac-Lys-Tyr-Lys(epsilon-acetyl)-AMC as substrate at 20 ug/ml by fluorescence assay
Sequence (O15379 whole entry): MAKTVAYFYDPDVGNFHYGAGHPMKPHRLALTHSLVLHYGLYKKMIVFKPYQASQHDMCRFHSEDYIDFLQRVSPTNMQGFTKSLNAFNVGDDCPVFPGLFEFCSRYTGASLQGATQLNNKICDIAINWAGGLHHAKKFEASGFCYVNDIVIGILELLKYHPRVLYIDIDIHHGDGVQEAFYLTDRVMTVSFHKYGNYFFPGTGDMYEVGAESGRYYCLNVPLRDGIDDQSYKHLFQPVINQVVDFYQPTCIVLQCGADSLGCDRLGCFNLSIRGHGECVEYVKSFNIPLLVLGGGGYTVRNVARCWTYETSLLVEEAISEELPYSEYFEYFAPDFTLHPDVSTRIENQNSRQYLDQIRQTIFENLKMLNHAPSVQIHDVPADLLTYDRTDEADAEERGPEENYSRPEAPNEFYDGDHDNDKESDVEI
The source made the active and inactive calls. No cut-off for these calls is given here.
endpoint: inhibition

The cases that follow already have their inhibition on record.
[
  {
    "compound": "O=C(O)/C=C/C=C/CCCCc1ccc2c(c1)OCO2",
    "inhibition": "< 50%"
  },
  {
    "compound": "O=C(/C=C/C=C/c1ccc2c(c1)OCO2)NO",
    "inhibition": "inactive"
  },
  {
    "compound": "O=C(O)/C=C/C=C/CC/C=C/c1ccc2c(c1)OCO2",
    "inhibition": "< 50%"
  },
  {
    "compound": "CC(C)CNC(=O)/C=C/C=C/CC/C=C/c1ccc2c(c1)OCO2 [RETROFRACTAMIDE A]",
    "inhibition": "< 50%"
  },
  {
    "compound": "O=C(O)/C=C/C=C/c1ccc2c(c1)OCO2 [PIPERIC ACID]",
    "inhibition": "inactive"
  }
]

As a next step, examine the compound that follows.
Any idea what inhibition was measured for CC(C)CNC(=O)/C=C/C=C/c1ccc2c(c1)OCO2 [PIPERLONGUMININE] ?
inactive

---

target: Histone deacetylase 1 (Homo sapiens); assay: Inhibition of human recombinant HDAC1 expressed in baculovirus infected insect High5 cells using Ac-Lys-Tyr-Lys(epsilon-acetyl)-AMC as substrate by fluorescence assay
Here, each record is paired with measured pIC50 data.
Scale: pIC50 equals -log10([C]), with [C] in mol/L.

[
  {
    "smiles record": "O=C(/C=C/C=C/CCCCc1ccc2c(c1)OCO2)NO",
    "study target": "Histone deacetylase 1 (Homo sapiens)",
    "pIC50": 5.79
  }
]

Any idea what pIC50 was measured for `O=C(/C=C/C=C/CC/C=C/c1ccc2c(c1)OCO2)NO` ?
6.14
